Test: Cytotoxicity against human C8166 cells by MTT assay
Format: cell-based
endpoint: CC50 (µg/mL)
One number for each entry, in µg/mL.

[
  {
    "compound": "C/C(=C/CC[C@@H](C)[C@H]1CC[C@@]2(C)[C@@H]3CC[C@@H](C(C)(C)O)[C@@]4(CCC(=O)O)C[C@@]34CC[C@]12C)C(=O)O [LANCIFOICACID A]",
    "val": 105
  }
]

Now let's try a different one.
Query block: // fetch CC50 given entry C=C(C)[C@@H]1CC[C@@H]2[C@]3(CC[C@]4(C)[C@@H]([C@H](C)CC/C=C(/C)C(=O)O)CC[C@@]24C)C[C@]13CCC(=O)O [NIGRANOIC ACID]
Result block: 88
